# Experimental Target: LbDHODH (Leishmania braziliensis)
# Protocol Text: biochemical
# Assay Conditions: read-out: enzyme inhibition

- Structure Smiles: "O=C1NC(=O)C(=Cc2ccc(N3CCOCC3)cc2[N+](=O)[O-])C(=O)N1"
  inhibition at 100 µM: "90 to 93%"
- Structure Smiles: "O=C1NC(=O)C(=Cc2ccc(C(=O)O)cc2)C(=O)N1"
  inhibition at 100 µM: "90 to 93%"
- Structure Smiles: "O=C1NC(=O)C(=Cc2cccc(O)c2)C(=O)N1"
  inhibition at 100 µM: "90 to 93%"

---

# Experimental Target: UniProt:E9AI53
# Protocol Text: biochemical
# Assay Conditions: 4 h, pH 8.15, read-out: LbDHODH Activity±SD (%)
Entries and their measured activity at 12.5 µM follow.

- Structure Smiles: "O=C1NC(=O)C(=Cc2ccc(-c3ccccc3)cc2)C(=O)N1"
  Unit Annotation: "%"
  activity at 12.5 µM: 41
- Structure Smiles: "O=C1NC(=O)C(=C/C=C/c2ccccc2)C(=O)N1"
  Unit Annotation: "%"
  activity at 12.5 µM: 4
- Structure Smiles: "O=C1NC(=O)C(=Cc2ccc(C(=O)O)cc2)C(=O)N1"
  Unit Annotation: "%"
  activity at 12.5 µM: 65
- Structure Smiles: "O=C1NC(=O)C(=Cc2ccc(N3CCOCC3)cc2[N+](=O)[O-])C(=O)N1"
  Unit Annotation: "%"
  activity at 12.5 µM: 60

---

# Experimental Target: LbDHODH (Leishmania braziliensis)
# Protocol Text: biochemical
# Assay Conditions: read-out: Single dose (0h) % activity
# label = condition met if activity at 100 µM < 90% else condition not met

- Compound: "COc1cc(CC2C(=O)NC(=O)NC2=O)ccc1O [3c]"
  Experimental Target: "LbDHODH (Leishmania braziliensis)"
  Class Assignment: "condition not met"
- Compound: "O=C1NC(=O)C(=Cc2ccccc2)C(=O)N1 [2a]"
  Experimental Target: "LbDHODH (Leishmania braziliensis)"
  Class Assignment: "condition met"
- Compound: "O=C1NC(=O)C(=Cc2ccc(N3CCOCC3)cc2[N+](=O)[O-])C(=O)N1 [2e]"
  Experimental Target: "LbDHODH (Leishmania braziliensis)"
  Class Assignment: "condition met"
- Compound: "O=C1NC(=O)C(=Cc2ccc(C(=O)O)cc2)C(=O)N1 [2b]"
  Experimental Target: "LbDHODH (Leishmania braziliensis)"
  Class Assignment: "condition met"
- Compound: "O=C1NC(=O)C(=C/C=C/c2ccccc2)C(=O)N1 [2i]"
  Experimental Target: "LbDHODH (Leishmania braziliensis)"
  Class Assignment: "condition met"
- Compound: "O=C1NC(=O)C(=Cc2ccc(-c3ccccc3)cc2)C(=O)N1 [2f]"
  Experimental Target: "LbDHODH (Leishmania braziliensis)"
  Class Assignment: "condition met"

---

Entries and their measured Modified T-half (min), Average follow.
# Assay Conditions: mouse liver microsomes, 0.4 mg/ml, 1 µM, average; limited to T Half range 3.00 - […]

- Structure Smiles: "O=C1NC(=O)C(=Cc2ccc(N3CCOCC3)cc2[N+](=O)[O-])C(=O)N1"
  Modified T-half (min), Average: ">120.0 min"
- Structure Smiles: "O=C1NC(=O)C(=Cc2ccc(-c3ccccc3F)[nH]2)C(=O)N1"
  Modified T-half (min), Average: "<3.0 min"
- Structure Smiles: "O=C1NC(=O)C(=C/C=C/c2ccccc2)C(=O)N1"
  Modified T-half (min), Average: "<3.0 min"

---

# Experimental Target: LbDHODH (Leishmania braziliensis, UniProt E9AI53)
# Sequence (E9AI53 entry or part of it): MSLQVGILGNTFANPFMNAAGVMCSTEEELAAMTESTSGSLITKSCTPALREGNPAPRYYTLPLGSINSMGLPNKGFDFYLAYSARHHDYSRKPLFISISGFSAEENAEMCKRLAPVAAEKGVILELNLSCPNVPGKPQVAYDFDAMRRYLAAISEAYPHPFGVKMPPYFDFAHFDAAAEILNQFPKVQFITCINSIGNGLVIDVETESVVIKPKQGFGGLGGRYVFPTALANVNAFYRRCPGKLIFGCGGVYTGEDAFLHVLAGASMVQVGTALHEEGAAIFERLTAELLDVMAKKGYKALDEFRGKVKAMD
# Protocol Text: biochemical
# Assay Conditions: IC50 0 h, LbDHODH, without preincubation
pIC50: −log10 of the molar value.
Entries and their measured pIC50 follow.
Readout Type: pIC50

- Structure Smiles: "O=C1NC(=O)C(Cc2ccc(-c3ccccc3F)[nH]2)C(=O)N1"
  Readout Type: "pIC50"
  Measured Result: "< 4.00"
- Structure Smiles: "O=C1NC(=O)C(Cc2ccccc2)C(=O)N1"
  Readout Type: "pIC50"
  Measured Result: "< 4.00"
- Structure Smiles: "O=C1NC(=O)C(Cc2ccc(N3CCOCC3)cc2[N+](=O)[O-])C(=O)N1"
  Readout Type: "pIC50"
  Measured Result: "< 4.00"

---

Entries and their measured activity at 100 µM follow.
# Experimental Target: LbDHODH (Leishmania braziliensis)
# Protocol Text: biochemical
# Assay Conditions: read-out: Single dose (0h) % activity
Readout Type: activity at 100 µM

- Compound: "O=C1NC(=O)C(Cc2ccccc2)C(=O)N1 [3a]"
  Readout Type: "activity at 100 µM"
  Measured Result: "90%"
- Compound: "O=C1NC(=O)C(=Cc2ccc(-c3ccccc3F)[nH]2)C(=O)N1 [2h]"
  Readout Type: "activity at 100 µM"
  Measured Result: "90%"
- Compound: "O=C1NC(=O)C(Cc2ccc(N3CCOCC3)cc2[N+](=O)[O-])C(=O)N1 [3e]"
  Readout Type: "activity at 100 µM"
  Measured Result: "90%"
